# Tested on: cerebellar granule cells (CGC)
# protocolDetails: Evaluation Test 2: viability of primary-cultured CGC by MTT assay (differentiation promoting action)
# measurementContext: 10 μM added days 1 and 4; KCl 15 mM; MTT day 7; percent of control sample with KCl 25 mM
Where a SMILES comes first, the peptide text is derived from it. [ ]: non-standard residue; d: D form. Hyp = O=C(O)[C@@H]1C[C@@H](O)CN1
Could you please report measured Viability (%) for the items listed next?
Numbers only, in %.

Examples with their reported Viability (%) follow.
>>> df
                                   compound      valuekind  resultnumber
0  NCC(=O)N1CCC[C@H]1C(=O)O [GP] (H-Gly-Pro-OH; N-terminus and C-terminus assumed)  Viability (%)          65.7
1  N[C@@H](CCC(=O)N[C@@H](CS)C(=O)NCC(=O)O)C(=O)O [Glutathione, glutathione]  Viability (%)          63.6
2  O=C(O)CNC(=O)[C@@H]1C[C@@H](O)CN1 [OG] (H-[Hyp]-Gly-OH)  Viability (%)          77.6

Next compound, please.
QUERY: Please look at this compound and report its Viability (%): NCC(=O)N1CCC[C@H]1C(=O)N1C[C@H](O)C[C@H]1C(=O)O [GPO] (H-Gly-Pro-[Hyp]-OH)
RESULT: 59.0

----------
For each entry below, report its Viability (%) value.
# Test system: cerebellar granule cells (CGC)
# protocolDetails: Evaluation Test 2: viability of primary-cultured CGC by MTT assay (differentiation promoting action)
# measurementContext: 1000 μM added days 1 and 4; KCl 15 mM; MTT day 7; percent of control sample with KCl 25 mM
Where a SMILES comes first, the peptide text is derived from it. [ ]: non-standard residue; d: D form. Hyp = O=C(O)[C@@H]1C[C@@H](O)CN1
One number for each entry, in %.

Study these solved cases before continuing.
>>> df
                                   compound      valuekind  unitofmeasure  resultnumber
0  NCC(=O)N1CCC[C@H]1C(=O)O [GP] (H-Gly-Pro-OH; N-terminus and C-terminus assumed)  Viability (%)              %          72.2
1  O=C(O)CNC(=O)[C@@H]1C[C@@H](O)CN1 [OG] (H-[Hyp]-Gly-OH)  Viability (%)              %          71.1
2  N[C@@H](CCC(=O)N[C@@H](CS)C(=O)NCC(=O)O)C(=O)O [Glutathione, glutathione]  Viability (%)              %          67.1

Now look at this one.
QUERY: Note Viability (%) for the compound shown: NCC(=O)N1CCC[C@H]1C(=O)N1C[C@H](O)C[C@H]1C(=O)O [GPO] (H-Gly-Pro-[Hyp]-OH)
RESULT: 61.5
